Assay Details: Half life in mouse at 1 mg/kg, iv by LC-MS/MS analysis
Format: ADME, organism-based
Experimental Parameters: in vivo
Measure Name: half-life (h)
Note: unit h is implicit; provide only the numeric part.

Ask: What half-life value was documented for this compound, "CN1CCN(Cc2ccc(NC(=O)CCSc3ccc4c(/C=C/c5ccccn5)n[nH]c4c3)cc2C(F)(F)F)CC1" ?
Result: 5

====

Assay Details: Cmax in Sprague-Dawley rat at 10 mg/kg, po by LC-MS/MS analysis
Format: ADME, organism-based
Parameters: dose 10 mg/kg, route oral
Experimental Parameters: in vivo
Measure Name: Cmax (ng/mL)
Unit ng/mL implied. Number only.

Ask: Record request: Cmax value, item "CN1CCN(Cc2ccc(NC(=O)CCSc3ccc4c(/C=C/c5ccccn5)n[nH]c4c3)cc2C(F)(F)F)CC1"
Result: 48.6

====

Assay Details: Antiproliferative activity in mouse BAF3 cells after 72 hrs by CCK8 assay
Format: cell-based
Lab note - cut at 2000 nM for GI50 at 72 h: met if strictly below, not met if not.

Ask: Here's an entry: "COc1cccc(NC(=O)CCSc2ccc3c(/C=C/c4ccccn4)n[nH]c3c2)c1" . Is its GI50 at 72 h below 2000 nM?
Result: not met

Ask: Does "O=C(NCCCSc1ccc2c(/C=C/c3ccccn3)n[nH]c2c1)c1cccc(C(F)(F)F)c1" have GI50 at 72 h strictly under 2000 nM?
Result: met

Ask: Below 2000 nM on GI50 at 72 h? Entry "Cc1ccc(NC(=O)c2ccc(CN3CCN(C)CC3)cc2)cc1Nc1nccc(-c2cccnc2)n1"
Result: not met

Ask: Could you please tell me whether GI50 at 72 h recorded for "CN1CCN(Cc2ccc(NC(=O)CCSc3ccc4c(/C=C/c5ccccn5)n[nH]c4c3)cc2C(F)(F)F)CC1" is less than 2000 nM?
Result: not met

Ask: Threshold test, GI50 at 72 h < 2000 nM: "CN(C)c1cccc(NC(=O)CCSc2ccc3c(/C=C/c4ccccn4)n[nH]c3c2)c1"
Result: not met

====

Assay Details: Cmax in mouse at 10 mg/kg, po by LC-MS/MS analysis
Assay type: ADME, organism-based
Parameters: dose 10 mg/kg, route oral
Experimental Parameters: in vivo
Measure Name: Cmax (ng/mL)
Return type: number; implicit unit ng/mL.

Ask: Return reported Cmax; argument: "CN1CCN(Cc2ccc(NC(=O)CCSc3ccc4c(/C=C/c5ccccn5)n[nH]c4c3)cc2C(F)(F)F)CC1"
Result: 87.7

====

Assay Details: Cmax in mouse at 1 mg/kg, iv by LC-MS/MS analysis
Format: ADME, organism-based
Design: dose 1 mg/kg, route intravenous
Experimental Parameters: in vivo
Measure Name: Cmax (ng/mL)
Dear colleague, please return just the value in ng/mL, with no unit written.

Ask: What does the data say about its Cmax? Entry: "CN1CCN(Cc2ccc(NC(=O)CCSc3ccc4c(/C=C/c5ccccn5)n[nH]c4c3)cc2C(F)(F)F)CC1"
Result: 525

====

Assay Details: Tmax in mouse at 10 mg/kg, po by LC-MS/MS analysis
Assay type: ADME, organism-based
Experimental Parameters: in vivo
Measure Name: Tmax (h)
Please state the figure in h; there is no need to write the unit.

Ask: Need Tmax of "CN1CCN(Cc2ccc(NC(=O)CCSc3ccc4c(/C=C/c5ccccn5)n[nH]c4c3)cc2C(F)(F)F)CC1" , thanks.
Result: 1
